Assay: Acute toxicity, Litchfield-Wilcoxon method (Pharmacological Test 3, Table 3)
Details: mouse, in vivo, ip; intraperitoneal injection, 6-weeks-old male ddY mice
Experimental: The acute toxicity was determined according to the Litchfield-Wilcoxon method, J. Pharm. Exp. Ther., 96, 99 […] using 6-weeks-old male ddY mice (having body weight of 19-24 g) while administrating the sample compound in intraperitonial injection.
Property Label: LD50 (mg/kg)
Record the value in mg/kg, omitting the unit from your answer.

Inquiry: What value of LD50 has been reported for the following compound? CC1=C(c2ccncc2)SC(C)C(=O)N1 (stereo not shown)
Reply text: 230

Inquiry: What value of LD50 has been reported for the following compound? CC1=C(c2ccnc3ccccc23)SCC(=O)N1 [drawing 29]
Reply text: 270

Inquiry: What value of LD50 has been reported for the following compound? CC1=C(c2ccncc2)SCC(=O)N1 [drawing 30]
Reply text: 275

Inquiry: What value of LD50 has been reported for the following compound? CCC1SC(c2ccncc2)=C(C)NC1=O (stereo not shown)
Reply text: 130

---

System: isolated auricule
Assay: Effect on isolated auricule (Pharmacological Test 2, Table 2)
Design: species or system guinea pig (male Hartley)
Conditions: 3×10^-4 mole, 30°±1° C., recording 5 minutes
Property Label: Tension increment (mg)
Record the value in mg, omitting the unit from your answer.

Inquiry: What value of Tension increment has been reported for the following compound? CC1=C(c2ccncc2)SCC(=O)N1 [drawing 26]
Reply text: 250

Inquiry: What value of Tension increment has been reported for the following compound? CC1=C(c2ccncc2)SC(C)C(=O)N1 (stereo not shown)
Reply text: 158

Inquiry: What value of Tension increment has been reported for the following compound? CCC1SC(c2ccncc2)=C(C)NC1=O (stereo not shown)
Reply text: 226

Inquiry: What value of Tension increment has been reported for the following compound? CC1=C(c2ccnc3ccccc23)SCC(=O)N1 [drawing 25]
Reply text: 190
